Each entry below carries its reported pIC50.
target: CDK12 (aa686-1082)/Cyclin K complex (Homo sapiens, UniProt Q9NYV4); construct: CDK12 (aa686-1082)/Cyclin K complex; assay: CDK12 inhibition assay (Caliper/LabChip EZ Reader kinase assay); assay type: biochemical; settings: Table 1; CDK12 (aa686-1082)/Cyclin K 50 nM, ATP 2 mM, 3 hr at 27° C.
Sequence (Q9NYV4 686-1082, species assumed): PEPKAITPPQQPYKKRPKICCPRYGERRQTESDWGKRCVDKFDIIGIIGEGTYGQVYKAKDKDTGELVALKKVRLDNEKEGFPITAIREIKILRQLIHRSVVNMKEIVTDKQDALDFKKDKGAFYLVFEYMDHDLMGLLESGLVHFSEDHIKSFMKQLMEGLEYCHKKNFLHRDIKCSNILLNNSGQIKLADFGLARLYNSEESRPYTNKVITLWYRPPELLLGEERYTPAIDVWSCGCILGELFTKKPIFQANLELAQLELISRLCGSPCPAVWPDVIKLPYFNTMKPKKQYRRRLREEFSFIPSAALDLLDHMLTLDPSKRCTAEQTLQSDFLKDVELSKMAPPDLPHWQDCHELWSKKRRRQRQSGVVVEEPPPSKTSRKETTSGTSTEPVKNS
Sequence (O75909 whole entry partner, species assumed, the tested form may be a part): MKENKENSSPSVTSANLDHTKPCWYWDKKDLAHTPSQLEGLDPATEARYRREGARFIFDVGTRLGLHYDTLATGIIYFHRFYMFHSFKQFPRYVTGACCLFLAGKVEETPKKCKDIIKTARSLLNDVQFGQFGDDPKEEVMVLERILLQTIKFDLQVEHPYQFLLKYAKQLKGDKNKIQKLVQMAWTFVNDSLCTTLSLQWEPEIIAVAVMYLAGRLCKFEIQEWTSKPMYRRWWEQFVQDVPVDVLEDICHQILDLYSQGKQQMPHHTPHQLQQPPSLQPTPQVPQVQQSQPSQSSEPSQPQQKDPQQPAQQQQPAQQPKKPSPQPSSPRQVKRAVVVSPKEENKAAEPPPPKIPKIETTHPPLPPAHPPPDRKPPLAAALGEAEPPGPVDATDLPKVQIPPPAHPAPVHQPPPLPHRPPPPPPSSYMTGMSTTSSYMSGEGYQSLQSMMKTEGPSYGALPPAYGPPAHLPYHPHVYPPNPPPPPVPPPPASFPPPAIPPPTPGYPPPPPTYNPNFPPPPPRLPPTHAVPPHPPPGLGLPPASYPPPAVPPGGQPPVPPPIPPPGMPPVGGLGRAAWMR
pIC50: −log10 of the molar value.

Below, each entry is followed by its recorded pIC50 result.
[
  {
    "compound": "CCc1cnc(N[C@H]2CCCNC2)nc1-c1c[nH]c2ncc(F)cc12",
    "pIC50": "5.30 to 6.70"
  },
  {
    "compound": "CCc1cnc(N[C@H]2CCCNC2)nc1-c1c[nH]c2c(S(=O)(=O)O)cccc12",
    "pIC50": "< 5.30"
  },
  {
    "compound": "FC(F)(F)c1cnc(N[C@H]2CCCNC2)nc1-c1c[nH]c2cc(-c3ccc4ncsc4c3)ccc12",
    "pIC50": "5.30 to 6.70"
  },
  {
    "compound": "CN1CCC[C@H](Nc2ncc(C(F)(F)F)c(-c3c[nH]c4cc(S(C)(=O)=O)ccc34)n2)C1",
    "pIC50": "< 5.30"
  },
  {
    "compound": "FCCc1cnc(N[C@H]2CCCNC2)nc1-c1c[nH]c2ccccc12",
    "pIC50": "5.30 to 6.70"
  }
]

Given the entry N#Cc1cc2[nH]cc(-c3nc(N[C@H]4CCCNC4)ncc3C(F)(F)F)c2cc1F , report its measured pIC50.
5.30 to 6.70

# repeat for CNC(=O)c1ccc2c(-c3nc(N[C@H]4CCCNC4)ncc3C(F)(F)F)c[nH]c2n1
5.30 to 6.70

# repeat for NS(=O)(=O)c1ccc(-c2ccc3c(-c4nc(N[C@H]5CCCNC5)ncc4C(F)(F)F)c[nH]c3c2)cc1
5.30 to 6.70

# repeat for CCS(=O)(=O)c1cccc2c(-c3nc(N[C@H]4CCCNC4)ncc3C(F)(F)F)c[nH]c12
5.30 to 6.70

# repeat for CP(C)(=O)c1cccc2c(-c3nc(N[C@H]4CCCNC4)ncc3C(F)(F)F)c[nH]c12 [Compound 352]
< 5.30

* * *

molecular target: CDK7/Cyclin H/MAT1 complex (Homo sapiens, UniProt P50613); assay: CDK7 inhibition assay (Caliper/LabChip EZ Reader kinase assay); assay type: biochemical; details: Table 3; comparison with structural analogs
Sequence (P50613 whole entry, species assumed): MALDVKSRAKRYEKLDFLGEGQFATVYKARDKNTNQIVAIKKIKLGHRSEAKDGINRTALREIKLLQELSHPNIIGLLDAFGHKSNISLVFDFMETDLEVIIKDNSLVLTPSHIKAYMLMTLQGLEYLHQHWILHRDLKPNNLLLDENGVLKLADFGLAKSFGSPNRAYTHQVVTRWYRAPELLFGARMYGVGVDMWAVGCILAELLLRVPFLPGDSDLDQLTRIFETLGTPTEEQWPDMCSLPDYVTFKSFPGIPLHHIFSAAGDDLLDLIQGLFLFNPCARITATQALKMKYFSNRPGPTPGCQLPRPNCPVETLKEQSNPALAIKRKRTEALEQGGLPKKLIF
Sequence (P51946 whole entry partner, species assumed): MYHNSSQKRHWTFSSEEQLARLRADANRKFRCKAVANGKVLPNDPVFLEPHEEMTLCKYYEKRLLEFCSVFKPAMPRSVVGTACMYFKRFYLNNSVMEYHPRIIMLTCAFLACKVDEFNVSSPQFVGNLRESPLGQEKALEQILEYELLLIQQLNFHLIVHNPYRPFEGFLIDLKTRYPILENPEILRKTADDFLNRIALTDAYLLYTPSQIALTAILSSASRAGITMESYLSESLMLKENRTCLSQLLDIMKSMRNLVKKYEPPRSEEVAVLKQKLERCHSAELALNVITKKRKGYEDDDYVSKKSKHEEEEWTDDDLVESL
Sequence (P51948 whole entry partner, species assumed): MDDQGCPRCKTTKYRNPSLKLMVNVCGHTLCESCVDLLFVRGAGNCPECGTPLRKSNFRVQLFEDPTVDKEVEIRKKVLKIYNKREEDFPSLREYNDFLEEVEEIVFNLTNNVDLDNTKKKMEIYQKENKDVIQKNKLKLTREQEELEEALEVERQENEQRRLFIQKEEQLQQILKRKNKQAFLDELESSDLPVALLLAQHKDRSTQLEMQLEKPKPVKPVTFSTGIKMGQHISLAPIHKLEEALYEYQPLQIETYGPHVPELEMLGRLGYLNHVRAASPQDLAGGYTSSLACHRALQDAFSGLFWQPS
pIC50: −log10 of the molar value.
Each entry below carries its reported pIC50.

[
  {
    "compound": "FC(F)(F)c1cnc(N[C@H]2CCCNC2)nc1-c1c[nH]c2ccccc12",
    "measured_on": "CDK7/Cyclin H/MAT1 complex (Homo sapiens, UniProt P50613)",
    "assay_metric": "pIC50",
    "test_value": "> 7.70"
  }
]

Given the entry FC(F)(F)c1cnc(N[C@H]2CCCNC2)nc1-c1n[nH]c2ccccc12 [drawing 562] , report its measured pIC50.
> 7.70

# repeat for C[C@]1(N)CC[C@@H](Nc2ncc(C(F)(F)F)c(-c3n[nH]c4ccccc34)n2)CC1 [reference compound]
5.30 to 6.70

# repeat for C[C@]1(N)CC[C@@H](Nc2ncc(C(F)(F)F)c(-c3c[nH]c4ccccc34)n2)CC1 [reference compound]
5.30 to 6.70

* * *

Each entry below carries its reported pIC50.
target: CDK2/Cyclin E1 complex (Homo sapiens, UniProt P24941); assay: CDK2 inhibition assay (Caliper/LabChip EZ Reader kinase assay); format: biochemical; conditions: Table 1; CDK2/Cyclin E1 0.5 nM, ATP 2 mM, 35 min at 27° C.
pIC50: −log10 of the molar value.

Below, each entry is followed by its recorded pIC50 result.
[
  {
    "molecule": "CN1CCN(c2cccc3c(-c4nc(N[C@H]5CCCNC5)ncc4C(F)(F)F)c[nH]c23)C1=O [Compound 176]",
    "measured_on": "CDK2/Cyclin E1 complex (Homo sapiens, UniProt P24941)",
    "assay_metric": "pIC50",
    "test_value": "5.30 to 6.70"
  },
  {
    "molecule": "FC(F)(F)c1cnc(N[C@H]2CNC[C@@H](c3nnc4ccccn34)C2)nc1-c1c[nH]c2ccccc12 [Compound 268]",
    "measured_on": "CDK2/Cyclin E1 complex (Homo sapiens, UniProt P24941)",
    "assay_metric": "pIC50",
    "test_value": "< 5.30"
  },
  {
    "molecule": "CC(C)(O)CCc1cccc2c(-c3nc(N[C@H]4CCCNC4)ncc3C(F)(F)F)c[nH]c12 [Compound 191]",
    "measured_on": "CDK2/Cyclin E1 complex (Homo sapiens, UniProt P24941)",
    "assay_metric": "pIC50",
    "test_value": "5.30 to 6.70"
  },
  {
    "molecule": "Cc1nn(C)cc1-c1ccc2c(-c3nc(N[C@H]4CCCNC4)ncc3C(F)(F)F)c[nH]c2c1 [Compound 226]",
    "measured_on": "CDK2/Cyclin E1 complex (Homo sapiens, UniProt P24941)",
    "assay_metric": "pIC50",
    "test_value": "5.30 to 6.70"
  },
  {
    "molecule": "N#Cc1cc(-c2ccc3c(-c4nc(N[C@H]5CCCNC5)ncc4C(F)(F)F)c[nH]c3c2)c[nH]1 [Compound 233]",
    "measured_on": "CDK2/Cyclin E1 complex (Homo sapiens, UniProt P24941)",
    "assay_metric": "pIC50",
    "test_value": "5.30 to 6.70"
  },
  {
    "molecule": "Cn1cc(-c2nc(NC3CCCNC3)ncc2C(F)(F)F)c2cccc(C#N)c21 (centres unmarked) [Compound 279]",
    "measured_on": "CDK2/Cyclin E1 complex (Homo sapiens, UniProt P24941)",
    "assay_metric": "pIC50",
    "test_value": "< 5.30"
  }
]

Read the next record carefully.
Given the entry COC1CCN(C(=O)c2ccc3c(-c4nc(N[C@H]5CCCNC5)ncc4C(F)(F)F)c[nH]c3c2)C1 (single isomer, unassigned) [Compound 281] , report its measured pIC50.
5.30 to 6.70

* * *

biological target: CDK9/Cyclin T1 complex (Homo sapiens); assay: CDK9 inhibition assay (Caliper/LabChip EZ Reader kinase assay); assay type: biochemical; settings: Table 1; CDK9/Cyclin T1 8 nM, ATP 2 mM, 15 min at 27° C.; listed as 109
Sequence (P50750 whole entry, species assumed): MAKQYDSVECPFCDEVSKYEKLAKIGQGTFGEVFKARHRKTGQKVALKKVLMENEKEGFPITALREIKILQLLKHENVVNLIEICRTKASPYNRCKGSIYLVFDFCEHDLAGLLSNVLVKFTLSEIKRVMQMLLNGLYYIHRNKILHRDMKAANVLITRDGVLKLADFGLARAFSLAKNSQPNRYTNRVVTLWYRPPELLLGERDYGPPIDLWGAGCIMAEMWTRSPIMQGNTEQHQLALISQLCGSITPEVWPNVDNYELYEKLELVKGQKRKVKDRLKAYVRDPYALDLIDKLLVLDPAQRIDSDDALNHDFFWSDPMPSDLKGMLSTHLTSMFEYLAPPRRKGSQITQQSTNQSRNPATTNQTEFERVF
Sequence (O60563 whole entry partner, species assumed): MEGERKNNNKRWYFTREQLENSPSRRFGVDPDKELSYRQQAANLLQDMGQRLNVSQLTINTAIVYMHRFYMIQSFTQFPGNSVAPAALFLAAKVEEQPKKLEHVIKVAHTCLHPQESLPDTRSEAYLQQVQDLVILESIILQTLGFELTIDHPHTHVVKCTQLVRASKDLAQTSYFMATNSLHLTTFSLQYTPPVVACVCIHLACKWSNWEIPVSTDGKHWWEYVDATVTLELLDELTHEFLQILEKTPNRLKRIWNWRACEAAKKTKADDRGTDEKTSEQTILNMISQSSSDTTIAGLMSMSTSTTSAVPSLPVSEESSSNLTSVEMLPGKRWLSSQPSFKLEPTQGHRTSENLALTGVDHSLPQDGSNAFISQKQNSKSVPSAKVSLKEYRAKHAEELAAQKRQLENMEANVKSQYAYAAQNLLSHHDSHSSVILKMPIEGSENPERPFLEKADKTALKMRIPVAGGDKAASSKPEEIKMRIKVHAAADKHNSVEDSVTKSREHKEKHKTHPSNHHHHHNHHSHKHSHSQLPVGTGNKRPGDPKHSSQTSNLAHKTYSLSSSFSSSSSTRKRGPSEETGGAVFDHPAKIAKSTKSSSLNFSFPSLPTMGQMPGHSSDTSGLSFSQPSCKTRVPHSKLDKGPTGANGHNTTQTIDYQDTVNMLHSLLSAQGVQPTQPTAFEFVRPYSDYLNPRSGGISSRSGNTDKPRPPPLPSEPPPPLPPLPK
pIC50: −log10 of the molar value.
assay_metric: pIC50

Query the reported pIC50 for CDK9/Cyclin T1 complex (Homo sapiens); item: CS(=O)(=O)c1c(C#N)ccc2c(-c3nc(N[C@H]4CCCNC4)ncc3Cl)c[nH]c12 [Compound 294]
5.30 to 6.70

* * *

target: CDK9/Cyclin T1 complex (Homo sapiens); test: CDK9 inhibition assay (Caliper/LabChip EZ Reader kinase assay); format: biochemical; settings: Table 1; CDK9/Cyclin T1 8 nM, ATP 2 mM, 15 min at 27° C.; listed as 117
pIC50: −log10 of the molar value.
assay_metric: pIC50

Given the entry O=S1(=O)CCn2cc(-c3nc(N[C@H]4CCCNC4)ncc3C(F)(F)F)c3cccc1c32 , report its measured pIC50.
5.30 to 6.70

* * *

biological target: CDK12 (aa686-1082)/Cyclin K complex (Homo sapiens, UniProt Q9NYV4); construct: CDK12 (aa686-1082)/Cyclin K complex; experiment: CDK12 inhibition assay (Caliper/LabChip EZ Reader kinase assay); assay type: biochemical; details: Table 1; CDK12 (aa686-1082)/Cyclin K 50 nM, ATP 2 mM, 3 hr at 27° C.
assay_metric: IC50

Below, each entry is followed by its recorded IC50 result.
[
  {
    "molecule": "FC(F)n1cc(-c2ccc3c(-c4nc(N[C@H]5CCCNC5)ncc4C(F)(F)F)c[nH]c3c2)cn1 [Compound 290]",
    "measured_on": "CDK12 (aa686-1082)/Cyclin K complex (Homo sapiens, UniProt Q9NYV4)",
    "IC50": "0.2 to 5 µM"
  },
  {
    "molecule": "Cn1cc(-c2nc(N[C@H]3CCCNC3)ncc2C(F)(F)F)c2cccc(S(C)(=O)=O)c21 [Compound 296]",
    "measured_on": "CDK12 (aa686-1082)/Cyclin K complex (Homo sapiens, UniProt Q9NYV4)",
    "IC50": "> 5 µM"
  },
  {
    "molecule": "CC1(C)CC[C@H](Nc2ncc(C(F)(F)F)c(-c3c[nH]c4ccccc34)n2)CN1 [Compound 190]",
    "measured_on": "CDK12 (aa686-1082)/Cyclin K complex (Homo sapiens, UniProt Q9NYV4)",
    "IC50": "0.2 to 5 µM"
  }
]

Given the entry CC(O)c1cnc(NC2CCCNC2)nc1-c1c[nH]c2ccccc12 (single isomer, unassigned) [Compound 239] , report its measured IC50.
> 5 µM

# repeat for FC(F)(F)c1cnc(N[C@H]2CCCNC2)nc1-c1c[nH]c2cc(-c3ccc4c(c3)OCCO4)ccc12 [Compound 342]
0.2 to 5 µM

# repeat for Cc1n[nH]cc1-c1cccc2c(-c3nc(NC4CCCNC4)ncc3C(F)(F)F)c[nH]c12 (stereo in doubt) [Compound 175]
0.2 to 5 µM

# repeat for OC1CCC(c2cccc3c(-c4nc(N[C@H]5CCCNC5)ncc4C(F)(F)F)c[nH]c23)CC1 (stereo partly drawn) [Compound 185]
0.2 to 5 µM

# repeat for CC(C)(O)Cn1cc(-c2ccc3c(-c4nc(N[C@H]5CCCNC5)ncc4C(F)(F)F)c[nH]c3c2)cn1 [Compound 214]
0.2 to 5 µM

# repeat for N#Cc1cc(-c2ccc3c(-c4nc(N[C@H]5CCCNC5)ncc4C(F)(F)F)c[nH]c3c2)ccc1O [Compound 315]
0.2 to 5 µM
